Test system: human PKK mRNA
Assay: Antisense inhibition of human PKK mRNA in HepaRG cells, 3,000 nM (Example 1)
Format: cell-based
Conditions: Table 1; PKK mRNA, HepaRG cells, 3,000 nM, electroporation, ~24 h, relative to untreated control cells
Strand notation (5' to 3'): a small letter for the sugar, then the base; units joined by * are phosphorothioate-linked, units joined directly phosphodiester-linked; [ ] holds rarer units or linkages, { } end groups; capitals alone tell only the bases. e = 2'-O-(2-methoxyethyl) (MOE); [5mC] = 5-methylcytosine; d = 2'-deoxy (DNA)
MEASUREMENT NAME: % inhibition

For record 530995 (eA*eG*eT*e[5mC]*eT*d[5mC]*dT*dT*dG*dG*d[5mC]*dA*dA*dA*d[5mC]*eA*eT*eT*e[5mC]*eA; antisense) [compound 530995] the listed % inhibition is 49%

Per the record, 531003 (eA*eA*e[5mC]*e[5mC]*eA*dG*dA*dG*d[5mC]*dT*d[5mC]*d[5mC]*d[5mC]*dT*dT*eG*eT*eG*eT*e[5mC]; antisense) [compound 531003] has % inhibition of 49%

Reported % inhibition of 530956 (antisense eA*e[5mC]*eA*e[5mC]*eT*dA*dT*d[5mC]*dT*dT*dT*d[5mC]*dA*dA*dG*eA*eA*eG*e[5mC]*eA) [compound 530956] : 57%

Reported % inhibition of 30929 (antisense eA*eA*e[5mC]*eG*eG*dT*d[5mC]*dT*dT*d[5mC]*dA*dA*dG*d[5mC]*dT*eG*eT*eT*e[5mC]*eT) [compound 30929] : 59%

Summary for this substance, 530984 (antisense eT*eT*eA*eG*eA*dA*dT*dG*dG*d[5mC]*dA*dG*dG*dG*dT*eT*e[5mC]*eA*eG*eG) [compound 530984] : % inhibition is 25%

For reference, reported % inhibition for 531002 (eG*eA*eG*e[5mC]*eT*d[5mC]*d[5mC]*d[5mC]*dT*dT*dG*dT*dG*dT*d[5mC]*e[5mC]*e[5mC]*eA*eT*eA; antisense) [compound 531002] stands at 85%

# substance 530967 (antisense e[5mC]*eA*eA*e[5mC]*e[5mC]*dA*dA*dT*dT*dT*d[5mC]*dT*dG*dA*dA*eA*eG*eG*eG*e[5mC]) [compound 530967] ; its % inhibition = 69%

% inhibition reported for this substance 530940 (antisense eT*eA*eG*e[5mC]*eA*dA*dA*d[5mC]*dA*dA*dG*dG*dA*dA*dA*eT*eG*eA*eA*eA) [compound 530940] : 7%

For this substance ( 530969 (antisense eG*eT*eG*e[5mC]*e[5mC]*dA*d[5mC]*dT*dT*dT*d[5mC]*dA*dG*dA*dT*eG*eT*eT*eT*eT) [compound 530969] ), measured % inhibition is 0%

% inhibition for 531000 (eA*eA*eG*eA*eA*dA*d[5mC]*dA*d[5mC]*dT*dT*dA*d[5mC]*dA*d[5mC]*eT*eT*e[5mC]*eT*e[5mC]; antisense) [compound 531000] is 1%

Notebook: 530949 (antisense eG*eG*eT*eG*eT*dA*d[5mC]*dA*dT*dG*dG*dA*dA*dG*d[5mC]*eT*eA*e[5mC]*eA*eT) [compound 530949] , % inhibition read as 31%

----------
Tested on: human PKK mRNA
Experiment: Dose-dependent antisense inhibition of human PKK in HepaRG cells, 0.19-5.00 uM (Example 5)
Format: cell-based
Settings: 1.67 μM, HepaRG cells, electroporation, approximately 16 hours; Table 36
Strand notation (5' to 3'): a small letter for the sugar, then the base; units joined by * are phosphorothioate-linked, units joined directly phosphodiester-linked; [ ] holds rarer units or linkages, { } end groups; capitals alone tell only the bases. e = 2'-O-(2-methoxyethyl) (MOE); [5mC] = 5-methylcytosine; d = 2'-deoxy (DNA)
MEASUREMENT NAME: percent inhibition of PKK at 1.67 μM (%)
Only the number, expressed in %, is required.

Given item 546854 (eT*eA*eA*e[5mC]*eA*dG*dT*dA*dT*d[5mC]*dA*d[5mC]*dT*dG*dT*e[5mC]*e[5mC]*eT*eA*eT; antisense) [compound 546854] , the value recorded as its percent inhibition of PKK at 1.67 μM is 83

The substance identified as 546897 (eA*eG*eT*eA*eT*d[5mC]*dA*d[5mC]*dT*dG*dT*d[5mC]*d[5mC]*dT*dA*eT*eG*eT*e[5mC]*eA; antisense) [compound 546897] registered its percent inhibition of PKK at 1.67 μM at 71

According to the records, this substance 546826 (eA*eG*eT*eA*eT*d[5mC]*dA*d[5mC]*dT*dG*dT*dA*d[5mC]*dT*dA*eG*eT*eT*eT*e[5mC]; antisense) [compound 546826] displays percent inhibition of PKK at 1.67 μM of 87

The substance listed as 546753 (e[5mC]*eT*eG*eG*e[5mC]*dT*d[5mC]*dA*d[5mC]*dT*dA*dT*dA*dG*dG*e[5mC]*e[5mC]*e[5mC]*e[5mC]*eA; antisense) [compound 546753] shows percent inhibition of PKK at 1.67 μM equal to 83

Form: substance = 547617 (antisense e[5mC]*eT*eG*eT*e[5mC]*d[5mC]*dT*dA*dT*dA*dT*d[5mC]*dA*d[5mC]*dT*eG*eT*eA*e[5mC]*e[5mC]) [compound 547617] ; percent inhibition of PKK at 1.67 μM = 77

----------
What percent inhibition of PKK at 0.19 μM was measured for each of the following?
Test system: human PKK mRNA
Assay: Dose-dependent antisense inhibition of human PKK in HepaRG cells, 0.19-5.00 uM (Example 5)
Assay type: cell-based
Settings: 0.19 μM, HepaRG cells, electroporation, approximately 16 hours; Table 36
Strand notation (5' to 3'): a small letter for the sugar, then the base; units joined by * are phosphorothioate-linked, units joined directly phosphodiester-linked; [ ] holds rarer units or linkages, { } end groups; capitals alone tell only the bases. e = 2'-O-(2-methoxyethyl) (MOE); [5mC] = 5-methylcytosine; d = 2'-deoxy (DNA)
Quick note: give the figure in %, leave out the unit.

For reference, reported percent inhibition of PKK at 0.19 μM for 546753 (e[5mC]*eT*eG*eG*e[5mC]*dT*d[5mC]*dA*d[5mC]*dT*dA*dT*dA*dG*dG*e[5mC]*e[5mC]*e[5mC]*e[5mC]*eA; antisense) [compound 546753] stands at 28

According to the records, this substance 546826 (eA*eG*eT*eA*eT*d[5mC]*dA*d[5mC]*dT*dG*dT*dA*d[5mC]*dT*dA*eG*eT*eT*eT*e[5mC]; antisense) [compound 546826] displays percent inhibition of PKK at 0.19 μM of 17

The value of percent inhibition of PKK at 0.19 μM measured for the substance 546854 (eT*eA*eA*e[5mC]*eA*dG*dT*dA*dT*d[5mC]*dA*d[5mC]*dT*dG*dT*e[5mC]*e[5mC]*eT*eA*eT; antisense) [compound 546854] turned out to be 23

Recorded result, 531231 (eT*eA*eT*e[5mC]*eA*d[5mC]*dT*dG*dT*dA*d[5mC]*dT*dA*dG*dT*eT*eT*e[5mC]*e[5mC]*eT) [compound 531231] , percent inhibition of PKK at 0.19 μM: 58

The recorded percent inhibition of PKK at 0.19 μM for entry 547293 (antisense e[5mC]*eA*eT*e[5mC]*eT*dG*dG*d[5mC]*dA*dG*dT*dA*dT*dT*dG*eG*eG*e[5mC]*eA*eT) [compound 547293] equals 53

Just so you know, measured percent inhibition of PKK at 0.19 μM for 546986 (e[5mC]*eA*eG*eG*eA*dT*dA*dG*dA*dA*d[5mC]*dT*dG*dA*dT*eG*eG*eT*e[5mC]*e[5mC]; antisense) [compound 546986] came out at 31

# substance 546897 (eA*eG*eT*eA*eT*d[5mC]*dA*d[5mC]*dT*dG*dT*d[5mC]*d[5mC]*dT*dA*eT*eG*eT*e[5mC]*eA; antisense) [compound 546897] ; its percent inhibition of PKK at 0.19 μM = 40

Memo: 547617 (antisense e[5mC]*eT*eG*eT*e[5mC]*d[5mC]*dT*dA*dT*dA*dT*d[5mC]*dA*d[5mC]*dT*eG*eT*eA*e[5mC]*e[5mC]) [compound 547617] , reported percent inhibition of PKK at 0.19 μM: 52

Reported percent inhibition of PKK at 0.19 μM for 548770 (antisense eT*eA*eA*e[5mC]*dA*dG*dT*dA*dT*d[5mC]*dA*d[5mC]*dT*eG*eT*e[5mC]*e[5mC]) [compound 548770] was 26
